Molecular target: T1, EGFRvIII amino acid residues 15 to 37 with Glu28 to Ala mutation (human)
T1 construct: mutation is already in the entry
T1 peptide: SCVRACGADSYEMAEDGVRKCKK
Test: yeast display flow cytometry, Myc-normalized;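 note: Anti-EGFRvIII monoclonal antibodies tested by flow cytometry on yeast displaying alanine-substituted fragments, two-color indirect fluorescence with anti-Myc signal tracking fusion protein expression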
Reported property: % of binding vs wild-type fragment 15-37 (%)
Kindly provide the numeric value in % only, without the unit symbol.

Input: I'd like to know its % of binding vs wild-type fragment 15-37. The binder in question is F263-4B3 (antibody, V domains shown, Mouse hybridoma mAb) VH: EVQLQQSGPELVKPGSSVKISCKASGYTFTDYNMDWVKQSHGKSLEWIGTINPNNGGTSYNQKFKGKATLTVDKSSNTAYMELRSLTSEDSAVYYCARGYDYDLWFAYWGQGTLVTVSA VL: EIVLTQSPALMAASPGEKVTITCSVSSSISSSNLHWYQQKSETSPKPWIYGTSNLASGVPVRFSGSGSGTSYSLTISSMEAEDAATYYCQQWSSYPLTFGAGTKLELE
Output: 86.7

The measured values listed here are drawn from patent US20220193132A1.
